Measured log10 of IC50 by item
experimentalTarget: Human BOAT1 (Homo sapiens, UniProt Q695T7)
Construct: expressed in transfected cells
Sequence (Q695T7 1-634): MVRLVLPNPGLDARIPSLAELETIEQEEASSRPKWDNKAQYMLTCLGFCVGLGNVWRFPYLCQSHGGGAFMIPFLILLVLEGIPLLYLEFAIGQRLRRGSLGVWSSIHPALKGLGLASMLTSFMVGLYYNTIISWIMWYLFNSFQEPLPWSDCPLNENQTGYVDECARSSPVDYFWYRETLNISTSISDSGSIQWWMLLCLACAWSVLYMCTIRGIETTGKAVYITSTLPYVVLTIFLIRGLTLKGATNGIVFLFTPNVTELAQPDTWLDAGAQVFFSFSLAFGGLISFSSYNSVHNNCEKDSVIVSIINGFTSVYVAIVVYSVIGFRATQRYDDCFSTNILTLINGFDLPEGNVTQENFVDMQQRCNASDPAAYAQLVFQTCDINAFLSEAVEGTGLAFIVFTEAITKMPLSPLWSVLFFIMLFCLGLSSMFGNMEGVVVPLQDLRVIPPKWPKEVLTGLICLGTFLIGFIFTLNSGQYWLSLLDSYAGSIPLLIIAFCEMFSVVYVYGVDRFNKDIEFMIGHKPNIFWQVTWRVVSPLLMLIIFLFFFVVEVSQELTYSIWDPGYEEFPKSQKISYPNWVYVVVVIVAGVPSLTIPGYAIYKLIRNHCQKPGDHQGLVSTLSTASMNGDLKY
assayText: hBOAT1 inhibitory test (phenylalanine uptake)
Assay type: cell-based
conditionDetails: Human BOAT1 stable expression CHO cells; phenylalanine uptake, phenylalanine 0.25 mM; read-out: hB0AT1 IC50
observable: log10 of IC50 (log10 of the value in nM)

# compound, observable, dataValue
measured = [
    ("O=C(/C=C/c1ccc(C(F)(F)F)cc1F)NCC(=O)N1CCN(CC2CC(C(=O)O)C2)CC1c1ccc(Cl)cc1 (single isomer, unassigned) [I-296]", "log10 of IC50", 2.87),
    ("NC(=O)Cc1ccc2c(c1)CN(C(=O)CNC(=O)/C=C/c1ccc(C(F)(F)F)cc1)CC2", "log10 of IC50", 1.60),
    ("CN1CCN(C(=O)CNC(=O)/C=C/c2ccc(C(F)(F)F)cc2F)CC1c1cccc(C(=O)O)c1 (stereo not drawn)", "log10 of IC50", 3.12),
    ("CC(CCN1C[C@H](c2ccccc2)N(C(=O)CNC(=O)/C=C/c2ccc(C(F)(F)F)cc2F)C[C@H]1C)C(=O)O (stereo partly drawn)", "log10 of IC50", 3.25),
    ("O=C(O)CCCN1CCN(C(=O)CNC(=O)/C=C/c2ccc(C(F)(F)F)cc2F)C(c2noc3ccccc23)C1 (stereo not drawn)", "log10 of IC50", 2.47),
    ("C[C@@H]1CN(C(=O)CNC(=O)/C=C/c2ccc(C(F)(F)F)cc2F)[C@@H](c2cccs2)CN1CCCC(=O)O", "log10 of IC50", 2.03),
]

----------
Measured pIC50 by item
experimentalTarget: Human BOAT1 (Homo sapiens, UniProt Q695T7)
Construct: expressed in transfected cells
assayText: hBOAT1 inhibitory test (phenylalanine uptake)
Format: cell-based
conditionDetails: Human BOAT1 stable expression CHO cells; [3H]-L-phenylalanine uptake, phenylalanine 0.25 mM; radioactivity after 100 to 200 min; read-out: hB0AT1 IC50
pIC50: −log10 of the molar value.

# molecule, experimentalTarget, pIC50
records = [
    ("N#Cc1cc2c(cc1CC(=O)O)CCN(C(=O)CNC(=O)/C=C/c1ccc(C(F)(F)F)cc1F)C2 [I-224]", "Human BOAT1 (Homo sapiens, UniProt Q695T7)", 6.96),
    ("O=C(O)CCCN1CCN(C(=O)CNC(=O)/C=C/c2ccc(C(F)(F)F)cc2F)C(c2ccc(Cl)cc2)C1 (racemic) [I-236]", "Human BOAT1 (Homo sapiens, UniProt Q695T7)", 7.03),
    ("C[C@H]1CN(CCCC(=O)O)C[C@H](c2ccccc2)N1C(=O)CNC(=O)/C=C/c1ccc(C(F)(F)F)cc1F [I-370]", "Human BOAT1 (Homo sapiens, UniProt Q695T7)", 6.84),
    ("O=C(O)CCCN1CCN(C(=O)CNC(=O)/C=C/c2ccc(C(F)(F)F)cc2F)C(c2cccc(Cl)c2)C1 (stereo not shown) [I-238]", "Human BOAT1 (Homo sapiens, UniProt Q695T7)", 7.01),
]
